Molecular target: T1, PSMA Fab (biotinylated (site not stated))
T1 construct: also called Anti-PSMA Fab; 006 PSMA Fab
Test: phage ELISA on captured PSMA Fab pre-incubated with PSMA antigen as competitor, anti-M13-HRP detection
result type: Phage binding ELISA signal, Anti-PSMA Fab with PSMA antigen
Give the figure by itself; no unit, no explanation.

{"columns": ["binder", "measurement"],
 "data": [
  ["ELQRCIPQWMCVGL (Peptide-180 library clone, tested as clonal phage supernatant with the peptide fused to pIII) [Phage-3284]", 0.0731],
  ["VERMCKPEWMCFGF (Peptide-180 library clone, tested as clonal phage supernatant with the peptide fused to pIII of the bacteriophage) [Phage-3281]", 0.102],
  ["MEHWCVPAWMCSGF (Peptide-180 library clone, tested as clonal phage supernatant with the peptide fused to pIII) [Phage-3282]", 0.264],
  ["TDVMCVPQWMCDGF (Peptide-180 library clone, tested as clonal phage supernatant with the peptide fused to pIII) [Phage-3294]", 0.106],
  ["PIPRCQPLWMCHGF (Peptide-180 library clone, tested as clonal phage supernatant with the peptide fused to pIII) [Phage-3291]", 0.085]
]}

Asked: Please report the recorded Phage binding ELISA signal, Anti-PSMA Fab with PSMA antigen for ESLLCKPKWMCDWL (Peptide-180 library clone, tested as clonal phage supernatant with the peptide fused to pIII) [Phage-3287] .
Given back: 0.0996

Asked: // query Phage binding ELISA signal, Anti-PSMA Fab with PSMA antigen value for entry FDTYCKPAWMCEGF (Peptide-180 library clone, tested as clonal phage supernatant with the peptide fused to pIII) [Phage-3285]
Given back: 0.0818

Asked: Quick one: Phage binding ELISA signal, Anti-PSMA Fab with PSMA antigen of EDYVCRPTWMCVGF (Peptide-180 library clone, tested as clonal phage supernatant with the peptide fused to pIII) [Phage-3289] ?
Given back: 0.0755

The measurements presented in this section are drawn from patent US20260242478A1.
